- test: soluble on expression in E. coli; label from the status in PepcDB or PDB records

| biosequence | soluble on expression in E. coli |
| --- | --- |
| MEDKKDALISKTISMLLDNGFAVADISGQFSASFDIIARRNIERYVLKVLYNIDTLKPTTAYQLAKVAKFLRSTATIVGEKAGGGPLEDGVIYYRHGIPISSLDTFRDYINGEKPYIYSGPGGFYVKINGEALREMRMKMSLSIGYLSHYLGVSRRSVSLYENGSSATIDVFLKLQEIIKSDLVDHTDLFKIIPDNFQEEERVDDVYIQMLLDILERIGLDTKPAYRMPFDILARDEEVVSLIASLLSEEADKTKIEIMKKISSVLEDDAFLISKHSTTRENINGCPVINIVDLEKMTSKDELLRMLEKRAR | not soluble |
| MESIKVVIVGGGQAGIAMGYYLVKEKVPFMILDANEQVGDSWRNRYDSLVLFTPRTYSQLPGFPMDGAPNGFPTKDEMASYLQQYANHFNLPMRHHTKVDRVTRQQNGRFHLKTTNGWIEAEKVVIATGAFQKPYLPPVLDSANNEMSQVHSSAYRNPAQIPGKSVLVVGGGNSGAQIAVELAKERNVTMAISHPFRFLPLKLLNKSMFSWLEWGGLLYAGIDTTRGRWFKKQKDPIFGKELKSLIKKGQIHLKPRVMNVQGKEVEFADHSRLSFDRIIWSTGFSPSYEWIDIDGVIATNGWPIHNRGITNIRGLYFLGLPWQYQRGSALVCGVGRDAEYLVPFIKHGDK | not soluble |
| MGSDKIHHHHHHLQVEKNVVISEFIVNMEDVLYHRDNTDVNIAEKVAEQTASLAHYGVAHYVLTNATNQQDSDNLHIVQTDLFEHYPKLTLYFYRILMAFDFLQAHPEIEKAALTDAGDVKMLNYPFDAVEDGILYMGDETIFIYDTSILIGYDGPQFIKDFIWENGHLPILNLGIMVGTRETLIEYLGIMVKLITEAELSLAQGNDEAFLGTYKMAISNYVAYYYFKDRLVHGNQVSTIFHGEQMVSGAWFKHK | not soluble |
| SKLDSYTHLSFYEKRELFRKKLREIEGPEVTLVNEVDDEPCPSLDFQFISQYRLTQGVIPPDPNFQSGCNCSSLGGCDLNNPSRCECLDDLDEPTHFAYDAQGRVRADTGAVIYECNSFCSCSMECPNRVVQRGRTLPLEIFKTKEKGWGVRSLRFAPAGTFITCYLGEVITSAEAAKRDKNYDDDGITYLFDLDMFDDASEYTVDAQNYGDVSRFFNHSCSPNIAIYSAVRNHGFRTIYDLAFFAIKDIQPLEELTFDYAGAKDFSPVQSQKSQQNRISKLRRQCKCGSANCRGWLFG | soluble |
| MVRIYTLTLAPSLDSATITPQIYPEGKLRCTAPVFEPGGGGINVARAIAHLGGSATAIFPAGGATGEHLVSLLADENVPVATVEAKDWTRQNLHVHVEASGEQYRFVMPGAALNEDEFRQLEEQVLEIESGAILVISGSLPPGVKLEKLTQLISAAQKQGIRCIVDSSGEALSAALAIGNIELVKPNQKELSALVNRELTQPDDVRKAAQEIVNSGKAKRVVVSLGPQGALGVDSENCIQVVPPPVKSQSTVGAGDSMVGAMTLKLAENASLEEMVRFGVAAGSAATLNQGTRLCSHDDTQKIYAYLSR | soluble |
| MTLISRIKQLAQSKQLTLAQLERNVGISNGQIRRWDTSSPKVENLLKIADYFSVSLDYLMGRTQQTEINHQAPMKSTQKELHIHITTEELTEEEITQLEEEANRFLRFRKFEMTNS | not soluble |
| MQLSKFFQKPQLLFRVAQPKDKENILKFLDAHFAKEEPCARALKLSPETSRGIFTTTVTRCLNFPFSTVVLQENDEIAACLLASVWNRTDPIDSADFNSSGMPENLKLFVQFINSAHSNFWKIAPPNVNSIIHREIGSVAPQFTRKGIATRMVTTNMTKTNLKKYNIGGVLSETSSLANQIVLQKAGFKCLKELPYSAIVDSKGNRVLRPDDGTTSLCLNFKPIEEYENLPE | not soluble |
| SADREGSVRVVGTAHVSSDSVEEVERVIDDEHPDTVAVELDEGRFRQMQGDAPDDLDATDLLKGSMAFQFLAYWLLSYAQRRLGEKFGIEPGADMQAAVDAANTAGADVALVDRDIQVTIQRFWARMSLPEKLRMGGELALGVTDSLTL | not soluble |
| MNTDILIGAIAGDIIGSYYEFVPIKSIDFPLFNGSSSHFTDDTIMTIANADWLLTGDSLLGIMQDYGNRYHSSYGSMFYEWLRADNPQPYNSWGNGSAMRVSPIDWAFNTLEETLEAAKQSAEVTHNHPEGIKGAQATAACIYLARTGKSKQEIKEYVETTFGYNLNRTCDDIRPTYHFNESCQGTIPESIIAFLESTDYESAIRLTISLGGDADTMGAITGGIAEAYYKEIPQYIIDEVLKRLSEEFIDIMQRFYRMFISS | not soluble |
| MTVYFIGAGPGAADLITVRGQRLLQRCPVCLYAGSIMPDDLLAQCPPGATIVDTGPLTLEQIVRKLADADADGRDVARLHSGDPSLYSALAEQCRELDALGIGYEIVPGVPAFAAAAAALKRELTVPGVAQTVTLTRVATLSTPIPPGEDLAALARSRATLVLHLAAAQIDAIVPRLLDGGYRPETPVAVVAFASWPQQRTLRGTLADIAARMHDAKITRTAVIVVGDVLTAEGFTDSYLYSVARHGRYAQ | not soluble |
| MTIIKLERRDVRLLLLYEFRLGHSAMEAERNICGAMGEGALSYNTAKSWFQKFKNGDFSLEEIERSGRPVELNEEDLVKLVEEEPRLSLREMEEKLECCHSTIARHLGRLGFTSKLGIWVPHELSASQKLTRVNVCTQLLTFRRKFDWLNNLVTGDEKWVLYVNHSRKRQWLPIGEKGIPTPKPDLHPKKIMICVWWGVQGPVHWELLPTNKTITADYYCAQLDRVAEKTNGKYEKLYFLHDNARPHVAKKTFQKLQDLGWTVLPHPPYSPDLAPTDYHLFLSLSDYMRDKQFDDEEHLKTELSTFFSSRSPDFFSRGIMMLPSKWQQVVDTNGEYLCE | not soluble |
